B1: Hairpin Ribozyme (parent)
chain: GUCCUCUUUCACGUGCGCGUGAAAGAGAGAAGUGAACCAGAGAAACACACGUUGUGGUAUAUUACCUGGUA

- Variants of: B1
- Test: self-cleavage, relative activity (ratio to wild type); higher = more cleavage; co-transcriptional

[
  {
    "Changes": "A24C A43G",
    "self-cleavage": 0.157
  },
  {
    "Changes": "U2G G27U",
    "self-cleavage": 0.172
  },
  {
    "Changes": "A26U G32A",
    "self-cleavage": 0.154
  },
  {
    "Changes": "G27C A39U",
    "self-cleavage": 0.0549
  },
  {
    "Changes": "G68A",
    "self-cleavage": 0.282
  },
  {
    "Changes": "C48A U63G",
    "self-cleavage": 0.229
  },
  {
    "Changes": "A31G G32A",
    "self-cleavage": 0.0999
  },
  {
    "Changes": "U8A A36G",
    "self-cleavage": 0.714
  },
  {
    "Changes": "A23C G34U",
    "self-cleavage": 1.14
  },
  {
    "Changes": "C10G C65A",
    "self-cleavage": 0.746
  },
  {
    "Changes": "A22C C38U",
    "self-cleavage": 0.552
  },
  {
    "Changes": "G1U G42U",
    "self-cleavage": 0.162
  },
  {
    "Changes": "U7C C38U",
    "self-cleavage": 0.211
  },
  {
    "Changes": "C12U A24U",
    "self-cleavage": 0.802
  },
  {
    "Changes": "U9A G69C",
    "self-cleavage": 0.274
  },
  {
    "Changes": "G57A A61G",
    "self-cleavage": 0.169
  },
  {
    "Changes": "C37A G57U",
    "self-cleavage": 0.142
  },
  {
    "Changes": "A28U U58A",
    "self-cleavage": 0.36
  },
  {
    "Changes": "A31G U52C",
    "self-cleavage": 0.508
  },
  {
    "Changes": "U8A C10U",
    "self-cleavage": 0.643
  },
  {
    "Changes": "U9G A49G",
    "self-cleavage": 0.558
  },
  {
    "Changes": "U2C A22C",
    "self-cleavage": 0.161
  },
  {
    "Changes": "G25U G34A",
    "self-cleavage": 0.897
  },
  {
    "Changes": "C16G A64G",
    "self-cleavage": 0.511
  },
  {
    "Changes": "G40A A41U",
    "self-cleavage": 0.608
  },
  {
    "Changes": "C37G C65U",
    "self-cleavage": 0.334
  },
  {
    "Changes": "C10A G56U",
    "self-cleavage": 0.148
  },
  {
    "Changes": "G17C A45C",
    "self-cleavage": 0.0898
  },
  {
    "Changes": "A11U G32A",
    "self-cleavage": 0.165
  },
  {
    "Changes": "A43U A61C",
    "self-cleavage": 0.123
  },
  {
    "Changes": "C12G G19U",
    "self-cleavage": 0.997
  },
  {
    "Changes": "C16A G25A",
    "self-cleavage": 0.561
  },
  {
    "Changes": "U5G A47G",
    "self-cleavage": 0.123
  },
  {
    "Changes": "A11G G13U",
    "self-cleavage": 0.662
  },
  {
    "Changes": "A41C A71G",
    "self-cleavage": 1.26
  },
  {
    "Changes": "A22C C48A",
    "self-cleavage": 0.291
  }
]
